Overview of reported IC50 across a group of compounds:
- Tested on: SK-OV-3
- method summary: Cytotoxicity against human Scov3 cells after 72 hrs by MTT assay
- Format: functional, cell-based
- measurement conditions: Homo sapiens, SK-OV-3, 72 h; read-out: IC50
measured attribute: IC50 (µM)

- CCOP(=O)(CCN1C/C(=C\c2cccs2)C(=O)/C(=C/c2cccs2)C1)OCC: 64
- O=C1/C(=C/c2cccs2)CN(P(=O)(Oc2ccccc2)Oc2ccccc2)C/C1=C\c1cccs1: 60
- CCOP(=O)(CCCN1C/C(=C\c2cccs2)C(=O)/C(=C/c2cccs2)C1)OCC: 40
- CCOP(=O)(CN1C/C(=C\c2cccs2)C(=O)/C(=C/c2cccs2)C1)OCC: 38
- CCOP(=O)(OCC)N1C/C(=C\c2cccs2)C(=O)/C(=C/c2cccs2)C1: 30
- CN1C/C(=C\c2cccs2)C(=O)/C(=C/c2cccs2)C1: 85
